Values from ChEMBL document CHEMBL1139731

Target: Adenosine receptor A2a (Homo sapiens)
Sequence (P29274 whole entry): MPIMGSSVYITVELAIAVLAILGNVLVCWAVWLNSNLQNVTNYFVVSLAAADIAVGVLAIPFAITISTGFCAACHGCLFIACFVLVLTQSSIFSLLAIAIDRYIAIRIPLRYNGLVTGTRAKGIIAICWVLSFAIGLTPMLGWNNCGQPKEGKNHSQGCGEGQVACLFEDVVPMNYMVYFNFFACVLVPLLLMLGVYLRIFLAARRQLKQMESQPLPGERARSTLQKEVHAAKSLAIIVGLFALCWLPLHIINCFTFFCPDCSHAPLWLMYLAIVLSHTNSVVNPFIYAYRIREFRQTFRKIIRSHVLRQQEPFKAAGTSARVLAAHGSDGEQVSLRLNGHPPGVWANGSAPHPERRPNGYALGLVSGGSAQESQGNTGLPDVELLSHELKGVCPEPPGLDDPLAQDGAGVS
Test: Displacement of [3H]CGS21680 from human recombinant adenosine A2A receptor
reported property: Ki

Form field: reported Ki of N#Cc1c(-c2ccccc2Cl)cc(-c2ccccc2)nc1N 89 nM (antagonist)

What about this molecule? Fc1ccc(CNc2nc(-c3ccccc3)cc(C(F)(F)F)n2)cc1 287 nM (antagonist)

// repeat for CSc1nc(N)nc(-c2cccc(-c3ccc4[nH]ccc4c3)c2)n1 and report 31 nM (antagonist)

Also Fc1ccc(CNc2nc(-c3cccs3)cc(C(F)(F)F)n2)cc1 , if possible. 287 nM (antagonist)

Try the molecule Fc1ccc(CNc2nc(-c3ccc(Cl)cc3)cc(C(F)(F)F)n2)cc1 454 nM (antagonist)
